system: Red blood cells (RBC); experiment: Red blood cell toxicity; assay type: cell-based; conditions: RBCs, 250 μg/ml
Where no end group is shown, it is not given here.
MEASURED_QUANTITY: % kill at 250 μg/ml (%)
Give bare numbers, in %.

Would you please look over these solved cases?
Enquiry: Give its % kill at 250 μg/ml value. Item: LRLRLRLRLRLRLR [LR (7), LR LR LR LR LR LR LR]
Return: 15

Enquiry: Okay, and LRLRLRLRLRLRLRLRLR [LR (9), LR LR LR LR LR LR LR LR LR] ?
Return: 24

# per-item lookup of % kill at 250 μg/ml; items listed below
1. FAKKFAKKFKKFAKKFAKFAFAF [D2A21, reference compound]
2. KFFKKFFKKFFKKFFKKFFKKFFKKFFK [KFFK (7), KFFK KFFK KFFK KFFK KFFK KFFK KFFK]
3. KFAKKFAKKFAKKFAKKFAK [KFAK (5), KFAK KFAK KFAK KFAK KFAK]
4. KFAKKFAKKFAKKFAK [KFAK (4), KFAK KFAK KFAK KFAK]

Return:
1: 93.1; 2: 100; 3: 4.1; 4: 0.1

====

experiment: Red blood cell toxicity; type: cell-based; settings: red blood cells (RBC)
Where no end group is shown, it is not given here.
MEASURED_QUANTITY: HC50 at 24 h

Some substances with recorded HC50 at 24 h:
Enquiry: # query: HC50 at 24 h of entry KFAKKFAKKFAKKFAKKFAKKFAKKFAK [KFAK (7), KFAK KFAK KFAK KFAK KFAK KFAK KFAK]
Return: > 250 µg/mL

Enquiry: Follow-up item: H-KKFAKKFAKKFAKKFAKKFAKKFA-OH [KKFA (6), KKFA KKFA KKFA KKFA KKFA KKFA]
Return: > 500 µg/mL

Enquiry: Another substance to look at: H-FAKKFAKKFAKKFAKKFAKKFAKK-OH [FAKK (6), FAKK FAKK FAKK FAKK FAKK FAKK]
Return: > 500 µg/mL

Enquiry: Repeat with AKKFAKKFAKKFAKKFAKKFAKKF [AKKF (6), AKKF AKKF AKKF AKKF AKKF AKKF]
Return: 39 µg/mL

Enquiry: And for H-KFAKKFAKKFAKKFAKKFAKKFAKKFAKKFAK-OH [KFAK (8), KFAK KFAK KFAK KFAK KFAK KFAK KFAK KFAK] ?
Return: > 500 µg/mL

Let us examine a further case.
Enquiry: Could you share which HC50 at 24 h value was measured for H-KFAKKFAKKFAKKFAKKFAKKFAK-OH [KFAK (6), KFAK KFAK KFAK KFAK KFAK KFAK] ?
Return: > 250 µg/mL

====

Please go through the items and note down their ppm needed for 3.5 log kill at 15 min.
system: P. aeruginosa ATCC 15442; assay: HMARQ biocidal kill activity; format: cell-based; conditions: P. aeruginosa ATCC 15442 (gram−), 15 min
Where no end group is shown, it is not given here.
One number for each entry, in ppm.

Solved cases (3 shown):
Enquiry: For P. aeruginosa ATCC 15442, provide ppm needed for 3.5 log kill at 15 min of FKA FKA FKA FKA FKA FKA FKA FKA FKA FKA FKA FKA FKA FKA FKA FKA FKA (FKAFKAFKAFKAFKAFKAFKAFKAFKAFKAFKAFKAFKAFKAFKAFKAFKA; Periodic Peptide) [FKA(17)] please.
Return: 16

Enquiry: What do you get for KTK KTK KTK KTK KTK KTK KTK (KTKKTKKTKKTKKTKKTKKTK; Periodic Peptide) [KTK(7)] ?
Return: 31

Enquiry: # repeat for KFAFKFAFKFAFKFAFKFAFKFAFKFAF [KFAF (7), KFAF KFAF KFAF KFAF KFAF KFAF KFAF]
Return: 63

Next up:
Enquiry: Test system P. aeruginosa ATCC 15442; read-out ppm needed for 3.5 log kill at 15 min; what value for LKLKLKLKLKLKLKLKLK [LK (9), LK LK LK LK LK LK LK LK LK] ?
Return: 8
